test: half-life in rats; conditions: rat, in vivo, read-out: half-life (T1/2) (converted)
observable: half-life (min)

compound="CC(C)(CCCCCCCCCCC(C)(C)CC(=O)O)CC(=O)O [Medica16-ββ, reference compound]" measurement=162
compound="CC(C)(CCCCCCCCCCCCC(C)(C)C(=O)O)C(=O)O [M16αα]" measurement=144

====

test: half-life in humans; type: in vivo; details: human, in vivo, read-out: half-life (T1/2) (converted)
observable: half-life (h)
Your answer should be a plain number; it is taken to be in h.

**Query** Which half-life reading was recorded for the compound CC(C)(CCCCCCCCCCC(C)(C)CC(=O)O)CC(=O)O [Medica16-ββ, reference compound] ?
**Result** 31.5

====

assay: half-life in dogs; conditions: dog, in vivo, read-out: half-life (T1/2) (converted)
observable: half-life (h)

[I] CC(C)(CCCCCCCCCCCCC(C)(C)C(=O)O)C(=O)O [M16αα]
[II] CC(C)(CCCCCCCCCCC(C)(C)CC(=O)O)CC(=O)O [Medica16-ββ, reference compound]
**Query** Name the one with the greater half-life value, either I or II as given. Indicate your choice by writing its label.
**Result** I
(I: 65 h, II: 25.8 h)

====

assay: half-life in humans; assay type: in vivo; conditions: human, in vivo, as stated in PK evaluation, read-out: half-life
observable: half-life

**Query** Which half-life reading was recorded for the molecule CC(C)(CCCCCCCCCCCCC(C)(C)C(=O)O)C(=O)O ?
**Result** 30 to 80 h

This collection of values is drawn from patent US11207285B2.
